Assay: in vitro
Conditions: human, hela cells, % viability
Simple rule here: viability at 28.5 h, 10 µM less than 90% is 1, otherwise -1.

## Input Does this molecule meet the criterion viability at 28.5 h, 10 µM < 90%? Cc1nn(CC(=O)Nc2ccc3c(c2)nc(CN2CCCC2)n3C)c(=O)c2ccccc12
## Output -1

## Input Does this molecule meet the criterion viability at 28.5 h, 10 µM < 90%? CCC1CCCCN1C(=O)c1nc2ccccc2s1 (centres unmarked)
## Output -1

## Input Does this molecule meet the criterion viability at 28.5 h, 10 µM < 90%? CCN1CCCC1CNC(=O)c1cc(Br)cnc1N1CCOCC1 (centres unmarked)
## Output 1

## Input Does this molecule meet the criterion viability at 28.5 h, 10 µM < 90%? Fc1ccc(CNCCN2CCOCC2)cc1 [CBK278192C]
## Output -1

## Input Does this molecule meet the criterion viability at 28.5 h, 10 µM < 90%? CC(=O)N[C@@H](C(=O)N1CC[C@@H]2NC(=O)[C@@H](Cc3ccccc3)NC(=O)C3(C/C=C/C[C@H]2C1)CCOCC3)C(C)C
## Output -1

## Input Does this molecule meet the criterion viability at 28.5 h, 10 µM < 90%? CCC(=O)N[C@H](CC)Cn1ncc2ccccc2c1=O
## Output 1

## Input Does this molecule meet the criterion viability at 28.5 h, 10 µM < 90%? Cc1nc(N)sc1-c1csc(Nc2cccc(C(F)(F)F)c2)n1
## Output -1

## Input Does this molecule meet the criterion viability at 28.5 h, 10 µM < 90%? COc1cccc(CN2CCN(C(=O)c3ccco3)[C@@H](C)C2)c1
## Output -1

## Input Does this molecule meet the criterion viability at 28.5 h, 10 µM < 90%? Cc1ccc(Nc2ncc(C(=O)NCc3ccccn3)c3ccccc23)cc1Cl
## Output -1

## Input Does this molecule meet the criterion viability at 28.5 h, 10 µM < 90%? Cc1ccc2c(c1)C(=O)CC1(CC3CCC1N3C(=O)C(C)C)O2 (centres unmarked)
## Output 1

## Input Does this molecule meet the criterion viability at 28.5 h, 10 µM < 90%? Cc1cc(F)c(S(N)(=O)=O)cc1NC(=O)c1ccc(C(F)(F)F)cc1
## Output -1

## Input Does this molecule meet the criterion viability at 28.5 h, 10 µM < 90%? Cc1ccc(NCC2CCN(CC(=O)Nc3cc(C)on3)C2)nc1 (centres unmarked)
## Output -1

## Input Does this molecule meet the criterion viability at 28.5 h, 10 µM < 90%? Nc1nc(CCN2CCOCC2=O)cs1
## Output 1

## Input Does this molecule meet the criterion viability at 28.5 h, 10 µM < 90%? COC(=O)c1ccc(N2CCN(C)CC2)c([N+](=O)[O-])c1
## Output -1

## Input Does this molecule meet the criterion viability at 28.5 h, 10 µM < 90%? CCc1c[nH]c(SCC(=O)c2cc(C)n(C3CCS(=O)(=O)C3)c2C)n1 (centres unmarked)
## Output 1

## Input Does this molecule meet the criterion viability at 28.5 h, 10 µM < 90%? CCc1nnsc1C(=O)Nc1nn(C)c2cccc(N3CCOCC3)c12
## Output 1

## Input Does this molecule meet the criterion viability at 28.5 h, 10 µM < 90%? O=[N+]([O-])c1cc(CN2CCCCC2)c2cccnc2c1O
## Output 1

## Input Does this molecule meet the criterion viability at 28.5 h, 10 µM < 90%? CCOC(=O)c1cc(C(N)=S)c(C)nc1C(F)(F)F
## Output -1

## Input Does this molecule meet the criterion viability at 28.5 h, 10 µM < 90%? CCC1CCCCN1C(=O)c1oc2ccccc2c1C (centres unmarked)
## Output -1

## Input Does this molecule meet the criterion viability at 28.5 h, 10 µM < 90%? CN(C)C(CNc1cncc(-c2cccc(Cl)c2)n1)c1cccnc1 (centres unmarked)
## Output -1

## Input Does this molecule meet the criterion viability at 28.5 h, 10 µM < 90%? Cn1ccnc1CNC(=O)c1cccc(OCC(=O)N2CCCCC2)c1
## Output 1

## Input Does this molecule meet the criterion viability at 28.5 h, 10 µM < 90%? CC(C)c1ccc(N2C(=O)[C@@H]3C[C@@H](NC(=O)c4cccs4)CCN3C2=O)cc1
## Output -1

FYI, the data here is from paper PMC12040169.
